Tested on: IMC-1 (IL-2 20 ng/mL)
Experiment: percent inhibition of viability; higher = more inhibition;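 also: normalised to DMSO-only wells as negative and benzethonium chloride as positive control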
Details: 72 h; 1 nM
MEASURED_ENDPOINT: percent inhibition of viability (%)
Just the number in %, nothing appended.

Known results for compounds:
INSERT INTO assay_data (compound, reported_result) VALUES
  ('Cc1cc(Nc2cc(N3CCN(C)CC3)nc(Sc3ccc(NC(=O)C4CC4)cc3)n2)n[nH]1 [Tozasertib] (max concentration tested 10000 nM)', -4.29),
  ('Clc1ccccc1C(c1ccccc1)(c1ccccc1)n1cccn1 [TRAM-34] (max concentration tested 1000 nM)', 1.38),
  ('CS(=O)(=O)c1ccc(C2=C(c3ccccc3)C(=O)OC2)cc1 [Rofecoxib] (max concentration tested 10000 nM)', 2.54),
  ('S=C(NCc1ccc2c(c1)OCO2)N1CCN(c2ncnc3c2oc2ccccc23)CC1 [Amuvatinib] (max concentration tested 10000 nM)', -1.71),
  ('Cc1cn(-c2cc(NC(=O)c3ccc(C)c(Nc4nccc(-c5cccnc5)n4)c3)cc(C(F)(F)F)c2)cn1 [Nilotinib] (max concentration tested 10000 nM)', -4.03);

Task item: If you can, please state the reported percent inhibition of viability value of CN(C)/N=N/c1[nH]cnc1C(N)=O [Dacarbazine] (max concentration tested 10000 nM) .
Reply: -2.15

----------
We begin with a simple list: items and their reported percent inhibition of viability.
Test system: KAI3 (IL-2 2.5 ng/mL)
Assay: percent inhibition of viability; higher = more inhibition
Settings: 72 h; 100 nM
Just the number in %, nothing appended.

INSERT INTO measurements (compound, subject_of_test, reported_result) VALUES
  ('CNC(=O)c1cc(Oc2ccc(NC(=O)Nc3ccc(Cl)c(C(F)(F)F)c3)cc2)ccn1 [Sorafenib] (max concentration tested 1000 nM)', 'KAI3 (IL-2 2.5 ng/mL)', 2.84),
  ('CCc1cc(Nc2nccc(-c3c(-c4ccc(OC)c(C(=O)Nc5c(F)cccc5F)c4)nc4ccccn34)n2)c(OC)cc1N1CCC(N2CCN(S(C)(=O)=O)CC2)CC1 (max concentration tested 10000 nM)', 'KAI3 (IL-2 2.5 ng/mL)', 3.16);

Then this compound:
Task item: If you can, please state the reported percent inhibition of viability value of Nc1ccn([C@@H]2O[C@H](CO)[C@@H](O)C2(F)F)c(=O)n1 [Gemcitabine] (max concentration tested 1000 nM) .
Reply: 98.3

----------
System: normal primary NK cells, pool 2 (3 donors) (IL-2 2.5 ng/mL)
Test: percent inhibition of viability; higher = more inhibition
Settings: 72 h; 0.1 nM
MEASURED_ENDPOINT: percent inhibition of viability

INSERT INTO measurements (molecule, measured_endpoint, reported_result) VALUES
  ('Cc1ccc(C(=O)N(CCCN)[C@@H](c2oc3cc(Cl)ccc3c(=O)c2Cc2ccccc2)C(C)C)cc1 (max concentration tested 100 nM)', 'percent inhibition of viability', '-2.94%'),
  ('CNC(=O)c1cc(Oc2ccc(NC(=O)Nc3ccc(Cl)c(C(F)(F)F)c3)cc2)ccn1 [Sorafenib] (max concentration tested 1000 nM)', 'percent inhibition of viability', '-8.52%'),
  ('Nc1ccn([C@@H]2O[C@H](CO)[C@@H](O)C2(F)F)c(=O)n1 [Gemcitabine] (max concentration tested 1000 nM)', 'percent inhibition of viability', '-12.2%'),
  ('CC(C)n1nc(-c2ccc3oc(N)nc3c2)c2c(N)ncnc21 [MLN-0128] (max concentration tested 1000 nM)', 'percent inhibition of viability', '-8.27%'),
  ('CC(C)C[C@H](NC(=O)[C@H](CCc1ccccc1)NC(=O)CN1CCOCC1)C(=O)N[C@@H](Cc1ccccc1)C(=O)N[C@@H](CC(C)C)C(=O)[C@@]1(C)CO1 [Carfilzomib] (max concentration tested 1000 nM)', 'percent inhibition of viability', '-2.72%');

Then this molecule:
Task item: Could you share what percent inhibition of viability was measured for CNC(=O)c1ccc(C)c(-n2c(C)cc(OCc3ccc(F)cc3F)c(Br)c2=O)c1 (max concentration tested 1000 nM) , tested on normal primary NK cells, pool 2 (3 donors) (IL-2 2.5 ng/mL)?
Reply: -5.3%

Attribution: the supplement of paper PMC5908809
